# Test system: SK-MEL-2 melanoma
# Measurement notes: NCI-60 one-dose screen, 48 h
# Details: 10 µM
# Experimental: Growth inhibition of the SK-MEL-2 human tumor cell line is measured as a screen for anti-cancer activity. Cells are grown in 96 well plates and exposed to the test compound for 48 hours. Compounds are tested at a single concentration, which is 10^-5 M for most compounds. The reported endpoint is percent growth (GI% or GIPRCNT), where numbers from 0 - 100% represent growth inhibition, and numbers from -100% - 0 represent cell death. For example, a value of 40 represents 60% growth inhibition. […]
The panel holds about 83,000 compounds, 20% with a hit somewhere; the sample as a whole holds those more often. Activity calls are given as the source filed them. How the source made its calls: active means growth percent below 10; inactive means the rest.
Outcome codes: active, inactive

Smiles: CC(C)C[C@H](NC(=O)CCn1ccc2ccccc2c1=O)B(O)O
Label value: inactive

Smiles: CCN(Cc1ccccc1)C1CCN(Cc2cc(Br)ccc2O)CC1
Label value: inactive

Smiles: C=CCNCCCN1C(=O)c2ccc3c4c(ccc(c24)C1=O)C(=O)N(CCCNCC=C)C3=O
Label value: active

Smiles: CC(C)(C)CC(C)(C)c1ccc(O)c(Cc2ccc(Cl)cc2Cl)c1
Label value: active

Smiles: FC(F)(F)c1ccc(-c2nc(-c3nc4cc(Cl)c(Cl)cc4[nH]3)c3ccccn23)cc1
Label value: inactive

* * *

# Test system: OVCAR-5 ovarian
# Measurement notes: NCI-60 one-dose screen, 48 h (100 = growth as untreated, 0 = no growth, -100 = all killed)
# Details: 10 µM
The panel holds about 83,000 compounds, 20% with a hit somewhere; the sample as a whole holds those more often.
Readings of growth for the listed compounds
Endpoint: growth (%)

Compound: CC(CNC(Cc1ccccc1)c1ccccc1)NC(Cc1ccccc1)c1ccccc1 (stereo not given)
Unit spec: %
Meas value: 46.3
//
Compound: CCN1CCOC1C(C)C (stereo not given)
Unit spec: %
Meas value: 99.2
//
Compound: O=[N+]([O-])c1cc2ncccc2c2ncccc12
Unit spec: %
Meas value: 98.3
//
Compound: COc1ccc(-c2ccccc2)cc1C(=O)c1ccc(-c2ccccc2)cc1
Unit spec: %
Meas value: 87.8
//
Compound: COc1cc(C)c2sc3ccccc3c(=O)c2c1NCCN(C)C
Unit spec: %
Meas value: 87
//
Compound: COc1cc2nc(Sc3sc(N)nc3C)n(-c3ccc(Oc4ccccc4)cc3)c(=O)c2cc1OC
Unit spec: %
Meas value: 106
//
Compound: COc1ccc(Nc2nc(NCc3ccccc3)c3ccccc3n2)cc1
Unit spec: %
Meas value: 78.7
//
Compound: COc1cc(C(=O)n2nc(N)c3c(C)cc(C)nc32)cc(OC)c1OC
Unit spec: %
Meas value: 118
//
Compound: COc1nc2c(c(=O)[nH]1)C(c1ccc(Oc3ccnc4cc(Cl)ccc34)c(OC)c1)C=C(c1cc(OC)c(OC)c(OC)c1)N2 (stereo not given)
Unit spec: %
Meas value: 92.6
//
Compound: CCc1ccc(-c2nnc(COc3ccc(-c4nc5ccc(C)cc5[nH]4)cc3OC)o2)cc1
Unit spec: %
Meas value: 92.4

* * *

# System: SR leukemia
# Measurement notes: NCI-60 one-dose screen, 48 h
# Details: 10 µM
About 83,000 compounds went through this panel and 20% of them were active in at least one assay; those are over-represented in the sample as a whole. Calls of active or inactive are those of the source. How the source made its calls: active means growth percent below 10; inactive means the rest.
Outcome codes: class 1 (active), class 0 (inactive)

Molecule: C(=C\c1nc2ccccc2s1)/c1ccc(N2CCOCC2)s1
Label value: class 0
--
Molecule: Cc1ccc([P+](Cc2ccc([N+](=O)[O-])cc2)(c2ccc(C)cc2)c2ccc(C)cc2)cc1
Label value: class 1
--
Molecule: Cc1ccc(S(=O)(=O)Nc2cccc3[nH]c(C(F)(F)F)nc23)cc1
Label value: class 0
--
Molecule: O=C1CC(c2cccc(-c3cccnc3)c2)=Nc2ccc(Br)cc2N1
Label value: class 0
--
Molecule: CC1=CSC2=NC(c3ccc(Cl)c(Cl)c3)=CC(c3ccc(Cl)cc3)N12 (stereo unspecified)
Label value: class 1
--
Molecule: FC(F)(F)c1ccc(-c2cnc(Cl)nc2NCc2cc(C(F)(F)F)cc(C(F)(F)F)c2)cc1
Label value: class 0
--
Molecule: Fc1ccc(-c2cc(C(Cl)Cl)no2)cc1
Label value: class 0
--
Molecule: N/C(=N\O)c1cn(C2OC(CO)C(O)C2O)c2ncnc(N)c12 (stereo unspecified)
Label value: class 1
--
Molecule: CCOc1nc(-c2ccccc2)cc2c(O)c(C(=O)NCCCO)[nH]c(=O)c12
Label value: class 0
--
Molecule: C/C(=N\NC(N)=S)C(C)(C)O
Label value: class 0
--
Molecule: COc1ccc(C(=O)/C=C/c2cc(-c3ccc(OC)c(OC)c3)n[nH]2)cc1OC
Label value: class 1
